assay: NCI Yeast Anticancer Drug Screen. Data for the cln2 rad14 strain (AID 165);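 note: 0% = growth equal to vehicle treated cultures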
protocol_conditions: S. cerevisiae cln2 rad14 strain, at 50.0 µM, active compounds read high
Procedure: Growth inhibition of yeast strains with defined genetic alterations is measured as a screen for potential anti-cancer activity. Selected strains with alterations in DNA damage repair or cell cycle control were exposed to compounds and growth inhibition was measured relative to vehicle treated controls. The strain used in this assay is cln2 rad14
The panel holds about 79,000 compounds, 15% with a hit somewhere; the sample as a whole holds those more often. The source made the active and inactive calls. Cut-off read from the data, not from the text of the source: active = growth inhibition above about 70%; inactive = the rest.
endpoint: growth inhibition

Please review the entries below; each comes with its answer.
Query: Please give the measured growth inhibition for this molecule: `Cc1ccc(C(=O)Nc2ccc([N+](=O)[O-])cc2)cc1`
Response: -2.75% (inactive)

Query: growth inhibition for `O=C1c2ccccc2C(=O)N1C/C(Cl)=C/Cl` ?
Response: -3.65% (inactive)

Query: Name the recorded growth inhibition for `C(=C\c1ncc(-c2ccccc2)cc1-c1ccccc1)/c1ccccc1` .
Response: -6.8% (inactive)

Query: Any idea what its growth inhibition is? The molecule is `CCOC(=O)c1cc(-n2nnc3ccccc32)cn1C`
Response: -3.6% (inactive)

Query: Recorded growth inhibition for `COc1cc(C(=O)O)c(Cc2ccccc2)c(OC)c1O` , please?
Response: 5.6% (inactive)

Query: For the molecule shown here, `O=CN/C=C/c1ccccc1O` , give the reported growth inhibition.
Response: 6.95% (inactive)

Respectfully, I request growth inhibition for each entry included below.
1. Nc1cc(=O)[nH]c2ncnn12
2. COC(=O)NC(S(=O)(=O)O)S(=O)(=O)O
3. CCCCCC(=O)C(C)C1(C(=O)OC)NC(=S)NC(=O)C1C#N (configuration not stated)
4. C=C1C(=O)O[C@H]2C1[C@H](OC(=O)/C(C)=C\COC(C)=O)C[C@]1(CO1)[C@@H]1[C@H](O)[C@H]3O[C@@]3(C)[C@@H]12 (some centres not stated)
5. CC1CCCN(N=Nc2ccc(Br)cc2-c2nc(N)c3cc(Br)ccc3n2)C1 (configuration not stated)

Response:
["6.2% (inactive)", "2.65% (inactive)", "12.4% (inactive)", "-1% (inactive)", "98.2% (active)"]

Please state, for each entry, its recorded growth inhibition.
1. Nc1cc(=O)c2n[nH]nc2[nH]1
2. COc1ccc(N=N/C(=N/NC(=O)c2ccccc2)c2ccc(N(CCC#N)CCC#N)cc2C)cc1
3. CC(=O)Oc1nc2ccccc2n1C(C)=O
4. O=c1c2n[nH]nc2nc2n1CC(c1ccccc1)S2 (configuration not stated)
5. OC(c1ccccc1)(C(F)(F)F)C(F)(F)F
6. O=[N+]([O-])c1ccc(/C(CBr)=N/N2CCCCCC2)cc1

Response:
1: -21.6% (inactive); 2: -7.2% (inactive); 3: -5.1% (inactive); 4: -3.2% (inactive); 5: 14.3% (inactive); 6: 7.9% (inactive)

Batch request: growth inhibition per item, same order as input.
1. CC1=C(C(=O)NNC(=O)c2ccccc2O)CC(C(=O)NNC(=O)c2ccccc2O)=C(C)N1
2. CN1C(=O)CC2(C)c3cc(O)cc(Br)c3N(C)C12 (configuration not stated)
3. Oc1ccc2ccccc2c1/C=N\Sc1ccc(Cl)cc1
4. O=C(N=C1[Se]C(=Nc2ccccc2)C(=Nc2ccccc2)N1c1ccccc1)c1ccccc1
5. COC(=O)C1=C(C)C(=O)[C@]23C(CCCC[C@H]12)C(=O)[C@H](C(=O)OC)C3C (some centres not stated)
6. CCSC(SCC)C(NC(C)=O)C(O)C(O)COC(=O)c1ccccc1 (configuration not stated)
7. C=C1CCc2ccccc2C1=O
8. COC(=O)c1ccc(/C=C2\CCc3ccccc3C2=O)cc1

Response:
1: 17.2% (inactive); 2: 10.5% (inactive); 3: 28.8% (inactive); 4: 20.6% (inactive); 5: -20.9% (inactive); 6: 12% (inactive); 7: -5.55% (inactive); 8: 12.5% (inactive)

Give one value of growth inhibition per listed molecule.
1. CC1(C)COC(=O)/C1=C/C#N
2. CN1CC2=C(C1)C(N(C(=O)c1ccc(-c3ccccc3)cc1)C(=O)c1ccc(-c3ccccc3)cc1)=NCN2
3. O=C(c1ccc(Cl)c(Cl)c1)C(CS(=O)(=O)O)CS(=O)(=O)O (tested in a mixture with another compound)
4. O=C1CN(c2cccc(Cl)c2)C(=O)CN1NCNN1CC(=O)N(c2cccc(Cl)c2)CC1=O
5. OCCn1nnc2ccccc21

Response:
-38.5% (inactive)
10.6% (inactive)
-4.45% (inactive)
6.65% (inactive)
5.35% (inactive)

// each molecule listed below needs its growth inhibition
1. Cc1[nH]nc(N)c1C(N)=O
2. CC1(C)N=C(/C(Cl)=[N+](/[O-])C(=O)c2ccc(Cl)cc2)C(C)(C)N1O
3. CCOc1cc2c(cc1C(CC)c1ccccc1)OCO2 (configuration not stated)

Response:
["1.2% (inactive)", "-7.3% (inactive)", "3% (inactive)"]

For each entry beneath this line, provide reported growth inhibition.
1. COc1ccccc1C/C(=N/O)c1ccccc1OC
2. O=C(O)c1c(O)ccc(O)c1C(=O)O
3. NC(=O)CNc1ccc(CC2CCOC2=O)cc1 (configuration not stated)
4. COC(=O)c1ccc2c(ccc[n+]2C)c1

Response:
["15.6% (inactive)", "-21.1% (inactive)", "0.95% (inactive)", "4.8% (inactive)"]

Please go through the list and note growth inhibition for each molecule.
1. CC(=O)Oc1nnc(OC(C)=O)c2cc(N)ccc12
2. C=C(COC(=O)C(C)C)[C@H]1Oc2ccc(C(C)=O)cc2[C@@H]1OC(=O)C(C)C
3. CC(C)(C)OC(=O)NCCNC(=O)OCc1ccccc1
4. O=[N+]([O-])c1cc(C2ON=C(c3ccccc3)N2C23CC4CC(CC(C4)C2)C3)ccc1Cl (configuration not stated)
5. O=C(Nc1ccccc1)OC1C=CC2CCC1C2 (configuration not stated)
6. S=C1Cc2c(-c3ccc(Br)cc3)cc(-c3ccccc3)nc2-c2ccccc2N1
7. CC(NCCOc1ccccc1)c1ccccc1 (configuration not stated)

Response:
1. -1.2% (inactive)
2. -9.55% (inactive)
3. 4.45% (inactive)
4. 16% (inactive)
5. 12.8% (inactive)
6. 20.6% (inactive)
7. 10.7% (inactive)

Go through the items and report each one's growth inhibition.
1. CNC(=O)N(Cl)c1ccc(Cl)cc1
2. CSc1cc(Br)ccc1-n1c(C(=O)c2ccccc2)c(SC)n(-c2ccccc2)c1=O
3. O=[N+]([O-])c1ccc(F)c(Cl)c1F

Response:
1. -26.6% (inactive)
2. 7.65% (inactive)
3. -20.9% (inactive)
